Give measured chromatographic logD for each item. Keep answers brief.
Assay: Distribution coefficient, log D of the compound at pH 7.4 by chromatographic method
Assay type: physicochemical
Conditions: octanol/water

Study these solved cases before continuing.
> print(dat)
                                   molecule  experimental.readout  value.measured
1  Cc1cc2c(-c3cncc(N)c3)cnc(N[C@@H]3CCNC[C@H]3OCC3CCCCC3)c2[nH]c1=O  chromatographic logD             2.2
2  Cc1cc2ccnc(N[C@@H]3CCNC[C@H]3OCCC3CCOCC3)c2[nH]c1=O (racemic)  chromatographic logD             1.5
3  Cc1cc2ccnc(N[C@@H]3CCNC[C@H]3OCC3CCCCCC3)c2[nH]c1=O (racemic)  chromatographic logD               4
4  Cc1cc2ccnc(N[C@@H]3CCNC[C@H]3OCC3CCS(=O)(=O)CC3)c2[nH]c1=O (racemic)  chromatographic logD               1

// lookup chromatographic logD for Cc1cc2ccnc(N[C@H]3CCNC[C@@H]3OCC3CCOCC3)c2[nH]c1=O
1.5

----------
Biological target: ATPase family AAA domain-containing protein 2 (Homo sapiens, UniProt Q6PL18)
Sequence (Q6PL18 whole entry): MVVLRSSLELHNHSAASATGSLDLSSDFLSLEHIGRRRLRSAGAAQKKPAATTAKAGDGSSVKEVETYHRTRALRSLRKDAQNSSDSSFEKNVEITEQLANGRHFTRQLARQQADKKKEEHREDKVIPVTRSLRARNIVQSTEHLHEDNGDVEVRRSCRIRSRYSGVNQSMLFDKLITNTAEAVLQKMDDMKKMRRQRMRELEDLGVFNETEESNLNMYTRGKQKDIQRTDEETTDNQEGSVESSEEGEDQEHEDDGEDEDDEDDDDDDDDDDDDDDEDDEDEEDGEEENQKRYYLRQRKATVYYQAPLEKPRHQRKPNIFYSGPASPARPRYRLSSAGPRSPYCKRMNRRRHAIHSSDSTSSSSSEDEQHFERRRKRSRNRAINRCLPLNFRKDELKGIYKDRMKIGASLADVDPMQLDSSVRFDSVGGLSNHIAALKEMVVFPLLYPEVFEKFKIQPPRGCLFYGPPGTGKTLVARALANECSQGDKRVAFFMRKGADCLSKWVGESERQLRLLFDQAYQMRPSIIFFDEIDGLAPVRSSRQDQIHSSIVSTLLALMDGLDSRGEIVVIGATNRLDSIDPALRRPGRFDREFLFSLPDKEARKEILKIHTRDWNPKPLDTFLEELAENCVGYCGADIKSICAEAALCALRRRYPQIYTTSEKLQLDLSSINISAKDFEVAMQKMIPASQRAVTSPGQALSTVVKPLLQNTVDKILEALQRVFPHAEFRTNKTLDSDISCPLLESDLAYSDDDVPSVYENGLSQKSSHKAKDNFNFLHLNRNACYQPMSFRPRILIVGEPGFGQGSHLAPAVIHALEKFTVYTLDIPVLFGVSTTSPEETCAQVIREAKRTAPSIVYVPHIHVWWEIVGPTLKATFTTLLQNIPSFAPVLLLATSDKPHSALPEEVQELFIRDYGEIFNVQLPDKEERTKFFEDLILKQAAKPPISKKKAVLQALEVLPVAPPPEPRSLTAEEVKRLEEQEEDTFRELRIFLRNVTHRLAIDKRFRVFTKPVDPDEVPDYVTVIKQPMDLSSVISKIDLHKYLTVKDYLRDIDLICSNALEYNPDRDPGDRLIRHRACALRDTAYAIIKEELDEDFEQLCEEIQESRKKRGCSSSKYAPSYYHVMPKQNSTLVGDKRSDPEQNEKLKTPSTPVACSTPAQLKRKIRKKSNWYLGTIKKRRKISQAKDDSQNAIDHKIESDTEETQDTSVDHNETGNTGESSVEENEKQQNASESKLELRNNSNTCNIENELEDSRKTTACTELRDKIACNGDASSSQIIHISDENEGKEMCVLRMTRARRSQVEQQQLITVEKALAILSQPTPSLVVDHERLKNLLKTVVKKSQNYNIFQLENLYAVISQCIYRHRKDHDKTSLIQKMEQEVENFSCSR
Threshold-based label: IC50 under 100 nM gives Yes, IC50 not under 100 nM gives No.

For orientation, consider the following solved cases.
> print(dat)
                              record.smiles  cat
1  CCc1cc2c(-c3cncc(C)c3)cnc(N[C@@H]3CCNC[C@H]3OCC3CCS(=O)(=O)CC3)c2[nH]c1=O  Yes
2  Cc1cc2c(-c3cccnc3)cnc(N[C@@H]3CCNC[C@H]3OCC3CCOCC3)c2[nH]c1=O   No
3  COc1cncc(-c2cnc(N[C@@H]3CCNC[C@H]3OCC3CCOCC3)c3[nH]c(=O)c(C)cc23)c1   No
4  Cc1cc2c(-c3cncnc3)cnc(N[C@@H]3CCNC[C@H]3OCC3CCOCC3)c2[nH]c1=O   No

Field: below-cutoff. Rule: recorded IC50 strictly less than 100 nM. Subject: Cc1cncc(-c2cnc(N[C@@H]3CCNC[C@H]3OCC3CCOCC3)c3[nH]c(=O)c(C)cc23)c1
No

And then Cc1cncc(-c2cnc(N[C@@H]3CCNC[C@H]3OC[C@H]3C[C@@H](C)S(=O)(=O)[C@@H](C)C3)c3[nH]c(=O)c(C)cc23)c1 , what is it?
Yes

All values here come from ChEMBL document CHEMBL3588744.
